Source listed as patent US20200131274A1.

# test.target: human prostate specific membrane antigen (PSMA), full-length, on cells (human, UniProt Q04609 1-750)
# Sequence (Q04609 whole entry): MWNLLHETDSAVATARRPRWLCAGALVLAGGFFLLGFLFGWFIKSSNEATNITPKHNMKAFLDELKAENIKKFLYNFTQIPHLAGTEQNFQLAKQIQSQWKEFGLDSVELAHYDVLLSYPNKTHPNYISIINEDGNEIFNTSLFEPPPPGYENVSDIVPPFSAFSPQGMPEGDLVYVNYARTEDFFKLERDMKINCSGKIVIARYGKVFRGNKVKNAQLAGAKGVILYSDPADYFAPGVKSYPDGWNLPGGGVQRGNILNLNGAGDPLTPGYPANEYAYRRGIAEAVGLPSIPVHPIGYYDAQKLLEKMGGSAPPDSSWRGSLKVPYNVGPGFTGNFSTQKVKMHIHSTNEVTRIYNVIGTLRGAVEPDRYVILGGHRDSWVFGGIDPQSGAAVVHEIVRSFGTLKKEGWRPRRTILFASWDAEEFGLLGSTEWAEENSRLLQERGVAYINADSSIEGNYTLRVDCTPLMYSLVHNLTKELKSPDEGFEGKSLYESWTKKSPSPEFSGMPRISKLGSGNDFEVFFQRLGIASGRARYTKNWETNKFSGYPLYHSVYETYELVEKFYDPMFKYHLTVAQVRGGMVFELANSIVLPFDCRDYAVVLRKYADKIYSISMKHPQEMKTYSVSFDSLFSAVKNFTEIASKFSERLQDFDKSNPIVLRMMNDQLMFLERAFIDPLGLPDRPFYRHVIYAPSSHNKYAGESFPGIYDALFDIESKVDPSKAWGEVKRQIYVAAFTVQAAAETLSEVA
# method: cell-based or functional assay
observable: His-ZAP cell killing, human PSMA Average EC50 (nM)

binder	unit.annotation	measurement
single VH domain antibody 1.11 (VHH, Human single VH domain antibody (Humabody)) VHH: EVQLLESGGGLVQPGGSLRLSCAASGFSFSSYALSWVRQAPGKGLEWVSSIGENNDTTDYADNVKGRFTISRDNSKNTLYLQMNSLRVEDTAVYYCVKDGVHWGQGTLVTVSS	nM	0.014
